Origin of the recorded values: patent US20070259926A1

molecular target: human mGluR5d (Homo sapiens, UniProt P41594); assay: FLIPR assay: functional assessment of mGluR5 antagonism (intracellular calcium mobilization); conditions: cells expressing human mGluR5d; read-out: FLIPR hmGluR5d
Sequence (P41594 21-942 isoform P41594-3 limits assumed): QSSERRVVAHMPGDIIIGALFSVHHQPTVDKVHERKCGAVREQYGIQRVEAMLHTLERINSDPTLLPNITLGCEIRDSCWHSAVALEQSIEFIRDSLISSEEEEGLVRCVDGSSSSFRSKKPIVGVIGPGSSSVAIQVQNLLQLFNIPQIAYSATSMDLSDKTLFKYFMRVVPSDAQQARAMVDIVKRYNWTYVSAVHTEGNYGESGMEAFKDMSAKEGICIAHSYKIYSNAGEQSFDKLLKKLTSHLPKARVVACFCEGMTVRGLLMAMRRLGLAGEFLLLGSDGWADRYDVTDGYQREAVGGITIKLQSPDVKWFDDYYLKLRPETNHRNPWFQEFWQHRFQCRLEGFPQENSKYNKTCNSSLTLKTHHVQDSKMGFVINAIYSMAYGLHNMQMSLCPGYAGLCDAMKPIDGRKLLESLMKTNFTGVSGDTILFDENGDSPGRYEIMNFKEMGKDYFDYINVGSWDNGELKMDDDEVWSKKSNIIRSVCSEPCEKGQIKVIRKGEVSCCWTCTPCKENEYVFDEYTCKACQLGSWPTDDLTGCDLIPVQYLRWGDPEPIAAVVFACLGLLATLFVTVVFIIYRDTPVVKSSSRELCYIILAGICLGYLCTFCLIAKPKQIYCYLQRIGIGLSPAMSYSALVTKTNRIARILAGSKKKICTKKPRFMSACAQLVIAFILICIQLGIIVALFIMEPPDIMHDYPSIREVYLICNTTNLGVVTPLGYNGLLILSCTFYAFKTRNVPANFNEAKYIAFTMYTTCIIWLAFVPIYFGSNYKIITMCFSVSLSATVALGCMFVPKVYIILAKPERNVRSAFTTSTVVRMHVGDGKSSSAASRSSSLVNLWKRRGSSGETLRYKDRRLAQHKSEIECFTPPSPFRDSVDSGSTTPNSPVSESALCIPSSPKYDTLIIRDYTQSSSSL
pIC50: −log10 of the molar value.
Recorded measurements of pIC50, one per entry
parameter: pIC50

{"smilesString": "Cc1cc(-c2nnc(N3CCC[C@@H]3c3nnn(-c4cccc(Cl)c4)n3)n2C)ccn1", "endpointResult": 7.96}
{"smilesString": "COc1cc(-c2nnc(N3CCC[C@@H]3c3nnn(-c4cccc(C#N)c4)n3)n2C)ccn1", "endpointResult": 7.30}

* * *

assay: Determination of brain to plasma ratio in rat; assay type: in vivo; conditions: brain and plasma, female Sprague Dawley rats, read-out: Brain/Plasma Ratio of compound in Rat
Recorded measurements of Kp, one per entry
parameter: Kp

{"smilesString": "COc1cc(-c2nnc(N3CCC[C@@H]3c3nnn(-c4cccc(C#N)c4)n3)n2C)ccn1", "endpointResult": 0.13}
{"smilesString": "Cc1cc(-c2nnc(N3CCC[C@@H]3c3nnn(-c4cccc(Cl)c4)n3)n2C)ccn1", "endpointResult": 0.27}
